Value source: patent US8445484B2

Can you tell me 1% percent of inhibition with respect to pepstatin at the same concentration for the items I'm about to list?
ASSAYED_TARGET: SAP2 (Candida albicans, UniProt P0DJ06)
Sequence (P0DJ06 57-398): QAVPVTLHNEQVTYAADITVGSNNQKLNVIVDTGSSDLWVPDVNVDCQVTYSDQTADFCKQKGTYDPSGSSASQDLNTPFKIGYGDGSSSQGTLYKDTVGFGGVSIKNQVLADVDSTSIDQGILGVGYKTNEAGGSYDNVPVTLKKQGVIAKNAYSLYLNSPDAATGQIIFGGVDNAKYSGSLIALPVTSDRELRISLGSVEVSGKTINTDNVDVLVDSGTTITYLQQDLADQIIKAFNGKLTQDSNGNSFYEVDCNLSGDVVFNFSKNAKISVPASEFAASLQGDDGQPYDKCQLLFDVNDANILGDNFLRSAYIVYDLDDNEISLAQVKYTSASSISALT
Format: biochemical
ASSAY_CONDITIONS: 10 μm compound; relative to pepstatin; pH 3.2, 30 min at 37° C.
Give bare numbers, in %.

INPUT: Requested read-out: 1% percent of inhibition with respect to pepstatin at the same concentration. Entry: O=C(NC(CO)c1ccccc1)C1OC2CN(Cc3ccccc3)C(=O)C1O2 (stereo not drawn) [Cpd 13]
OUTPUT: 16

INPUT: Consider next the compound COC(=O)[C@H](CC(C)C)N1C[C@H]2O[C@H](C(=O)N3CCCCC3)[C@@H](O2)C1=O [Cpd 1] in the same way.
OUTPUT: 37

INPUT: Field entry: CC(C)CC(CO)NC(=O)C1OC2CN(Cc3ccccc3)C(=O)C1O2 (stereo not drawn) [Cpd 5]
OUTPUT: 41

INPUT: Further, for O=C(NCC(F)(F)F)C1OC2OC1C(=O)N(Cc1ccccc1)C2Cc1ccccc1 (stereo not drawn) [Cpd 18] ?
OUTPUT: 17

INPUT: Thanks! And CCCCNC(=O)CC(O)CNC(=O)[C@H](CC(C)C)N1C[C@H]2O[C@H](C(=O)N3CCCCC3)[C@@H](O2)C1=O (stereo partly drawn) [Cpd 3] ?
OUTPUT: 22

Each compound below has a recorded value; state its 1% percent of inhibition with respect to pepstatin at the same concentration.
1. CCCCNC(=O)C1OC2OC1C(=O)N(Cc1ccccc1)C2Cc1ccccc1 (stereo not drawn) [Cpd 16]
2. O=C(NCCO)C1OC2CN(Cc3ccccc3)C(=O)C1O2 (stereo not drawn) [Cpd 4]
3. O=C(NC(CO)Cc1ccccc1)C1OC2CN(Cc3ccccc3)C(=O)C1O2 (stereo not drawn) [Cpd 14]
4. O=C(NC(CO)Cc1ccccc1)C1OC2CN(Cc3ccccc3)C(=O)C1O2 (stereo not drawn) [Cpd 15]

OUTPUT:
1: 17; 2: 36; 3: 19; 4: 15

###

What 1% percent of inhibition with respect to pepstatin at the same concentration was measured for each of the following?
ASSAYED_TARGET: SAP2 (Candida albicans)
Assay type: biochemical
ASSAY_CONDITIONS: 10 μm compound; relative to pepstatin; pH 3.2, 30 min at 37° C.
Numbers only, in %.

Sample records with 1% percent of inhibition with respect to pepstatin at the same concentration:
INPUT: Look up 1% percent of inhibition with respect to pepstatin at the same concentration with SAP2 (Candida albicans) for this compound: CCCCCCNC(=O)C1OC2OC1C(=O)N(Cc1ccccc1)C2Cc1ccccc1 (stereo not shown)
OUTPUT: 21

INPUT: And O=C(C1OC2CN(Cc3ccccc3)C(=O)C1O2)N1CCCCC1 (stereo not shown) ?
OUTPUT: 42

INPUT: # iterate: COC(=O)[C@H](CC(C)C)N1C[C@H]2O[C@H](C(=O)N3CCOCC3)[C@@H](O2)C1=O
OUTPUT: 32

INPUT: What do we get for O=C(C1OC2OC1C(=O)N(Cc1ccccc1)C2Cc1ccccc1)N1CCN(CCO)CC1 (stereo not shown) ?
OUTPUT: 31

INPUT: And what about the compound CCOC(=O)N1CCN(C(=O)C2OC3CN(Cc4ccccc4)C(=O)C2O3)CC1 (stereo not shown) ?
OUTPUT: 37

Could you tell me 1% percent of inhibition with respect to pepstatin at the same concentration for each of these compounds? They are listed below.
1. O=C(C1OC2OC1C(=O)N(Cc1ccccc1)C2Cc1ccccc1)N1CCOCC1 (stereo not shown)
2. O=C(C1OC2CN(Cc3ccccc3)C(=O)C1O2)N1CCN(CCO)CC1 (stereo not shown)
3. O=C(C1OC2CN(Cc3ccccc3)C(=O)C1O2)N1CCOCC1 (stereo not shown)

OUTPUT:
[25, 34, 31]

Look up 1% percent of inhibition with respect to pepstatin at the same concentration for the entries below, preserving their order.
1. O=C(C1OC2OC1C(=O)N(Cc1ccccc1)C2Cc1ccccc1)N1CCSCC1 (stereo not shown)
2. O=C(NCCCO)C1OC2CN(Cc3ccccc3)C(=O)C1O2 (stereo not shown)

OUTPUT:
1: 28; 2: 12
